studySystem: Human recombinant monoamine oxidase MAO-B (Homo sapiens (Human), UniProt P27338)
Sequence (P27338 whole entry): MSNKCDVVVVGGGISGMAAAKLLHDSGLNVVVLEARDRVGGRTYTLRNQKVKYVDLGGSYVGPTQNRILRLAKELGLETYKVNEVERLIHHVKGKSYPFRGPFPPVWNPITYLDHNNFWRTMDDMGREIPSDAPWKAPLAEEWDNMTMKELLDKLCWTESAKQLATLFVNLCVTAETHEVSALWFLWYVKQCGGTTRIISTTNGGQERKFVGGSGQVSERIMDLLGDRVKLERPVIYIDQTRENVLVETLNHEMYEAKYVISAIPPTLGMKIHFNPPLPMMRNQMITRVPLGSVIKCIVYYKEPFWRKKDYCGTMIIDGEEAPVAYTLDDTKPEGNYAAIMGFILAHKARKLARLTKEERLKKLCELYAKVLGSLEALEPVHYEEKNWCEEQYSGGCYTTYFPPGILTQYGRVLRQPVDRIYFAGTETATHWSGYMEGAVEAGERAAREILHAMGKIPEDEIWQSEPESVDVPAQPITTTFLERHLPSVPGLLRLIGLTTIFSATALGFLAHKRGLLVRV
testDetails: Monoamine oxidase assay (kynuramine to 4-hydroxyquinoline fluorescence), MAO-B
Assay type: biochemical
quantity: IC50

[Q] State its IC50: Oc1ccc(C2CC2NC2CCNCC2)cc1 (stereo not shown) [Example 23]
[A] > 100 µM

====

studySystem: Human recombinant monoamine oxidase MAO-A (Homo sapiens (Human), UniProt P21397)
Sequence (P21397 whole entry): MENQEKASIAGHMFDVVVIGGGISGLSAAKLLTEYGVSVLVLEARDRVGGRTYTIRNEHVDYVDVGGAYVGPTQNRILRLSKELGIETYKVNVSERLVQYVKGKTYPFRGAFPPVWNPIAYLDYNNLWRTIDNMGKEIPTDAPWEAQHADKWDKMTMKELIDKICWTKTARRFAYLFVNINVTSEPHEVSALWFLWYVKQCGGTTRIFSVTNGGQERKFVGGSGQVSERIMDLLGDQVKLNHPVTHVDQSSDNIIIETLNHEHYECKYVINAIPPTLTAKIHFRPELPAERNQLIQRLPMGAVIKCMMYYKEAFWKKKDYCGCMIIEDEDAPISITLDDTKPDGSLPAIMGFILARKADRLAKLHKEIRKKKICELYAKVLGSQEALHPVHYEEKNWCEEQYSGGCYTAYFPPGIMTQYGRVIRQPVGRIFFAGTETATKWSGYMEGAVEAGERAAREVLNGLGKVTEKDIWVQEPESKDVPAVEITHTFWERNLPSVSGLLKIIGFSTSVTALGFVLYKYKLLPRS
testDetails: Monoamine oxidase assay (kynuramine to 4-hydroxyquinoline fluorescence), MAO-A
Assay type: biochemical
Method: Human recombinant monoamine oxidase proteins MAO-A and MAO-B were purchased from Sigma Aldrich. MAOs catalyze the oxidative deamination of primary, secondary and tertiary amines. In order to monitor MAO enzymatic activities and/or their inhibition rate by inhibitor(s) of interest, a fluorescence-based (inhibitor)-screening assay was set up. […] The IC50 values of each inhibitor were calculated with GraphPad Prism Software.
quantity: IC50

[Q] Quick one: give measured IC50 for Oc1ccc(C2CC2NC2CCNCC2)cc1 (stereo not shown) [Example 23]
[A] > 100 µM

====

studySystem: Human recombinant LSD1 protein (Homo sapiens (Human), UniProt O60341)
testDetails: Inhibition of LSD1 (Amplex Red H2O2 release, di-methylated H3-K4 peptide substrate)
quantity: IC50

[Q] Give a short answer stating reported IC50 for Oc1ccc(C2CC2NC2CCNCC2)cc1 (stereo not shown) .
[A] ~100 µM
